# melting point per entry

Solved entries:
Cl.Cl.O=c1[nH]c(C2CCN(CCc3c[nH]c4ccccc34)CC2)nc2cc(Cl)ccc12 ... 190 to 195 °C
Cl.O=c1[nH]c(C2CCN(CCc3c[nH]c4cc(F)ccc34)CC2)nc2cc(Cl)ccc12 ... 256 to 266 °C
Cl.O=c1[nH]c(C2CCN(CCc3c[nH]c4ccc(F)cc34)CC2)nc2ccc(Cl)cc12 ... 290 °C (dec.)
Cl.O=c1[nH]c(C2CCN(CCc3c[nH]c4ccc(F)cc34)CC2)nc2ccccc12 ... 298 to 301 °C
Cl.O=c1[nH]c(C2CCN(CCc3c[nH]c4ccc(F)cc34)CC2)nc2cc(Cl)ccc12 ... 300 °C (dec.)

Query block: Field request: melting point | item: Cl.O=c1[nH]c(C2CCN(CCc3c[nH]c4cc(F)ccc34)CC2)nc2ccc(Cl)cc12
Result block: 292 to 294 °C

Query block: Field request: melting point | item: COc1ccc2nc(C3CCN(CCc4c[nH]c5cc(F)ccc45)CC3)[nH]c(=O)c2c1.Cl
Result block: 230 to 232 °C

Query block: Field request: melting point | item: Cl.O=c1[nH]c(C2CCN(CCc3c[nH]c4ccccc34)CC2)nc2cc(F)ccc12
Result block: 220 to 225 °C

Query block: Field request: melting point | item: Cl.O=c1[nH]c(C2CCN(CCc3c[nH]c4cc(F)ccc34)CC2)nc2ccccc12
Result block: 263 to 264 °C

Query block: Field request: melting point | item: Cl.O=c1[nH]c(C2CCN(CCc3c[nH]c4cc(F)ccc34)CC2)nc2cc(F)ccc12
Result block: 205 to 209 °C

Query block: Field request: melting point | item: Cl.Cl.O=c1[nH]c(C2CCN(CCc3c[nH]c4cc(F)ccc34)CC2)nc2cc(F)c(F)cc12
Result block: 215 to 217 °C

Query block: Field request: melting point | item: COc1cc2nc(C3CCN(CCc4c[nH]c5cc(F)ccc45)CC3)[nH]c(=O)c2cc1OC.Cl
Result block: 229 to 231 °C

###

Where a name gives a salt, the structure may show the parent alone.
# melting point per entry

Query block: Field request: melting point | item: O=c1[nH]c(C2CCN(CCc3c[nH]c4ccccc34)CC2)nc2ccccc12 (as salt: hydrochloride)
Result block: 268 to 270 °C

Query block: Field request: melting point | item: Cl.Cl.O=c1[nH]c(C2CCN(CCc3c[nH]c4cc(F)ccc34)CC2)nc2ccc(F)cc12
Result block: 195 to 197 °C

Query block: Field request: melting point | item: Cl.O=c1[nH]c(C2CCN(CCc3c[nH]c4ccc(F)cc34)CC2)nc2cc(F)ccc12
Result block: 283 °C (dec.)
